Experimental details: Plasma protein binding in human plasma incubated for 18 hrs by equilibrium dialysis
Value kind: fraction unbound at 18 h
Give bare numbers.

(Q) Which fraction unbound at 18 h is listed for CC(C)NCC(O)COc1cccc2ccccc12 (stereo unspecified) [PROPRANOLOL] ?
(A) 0.14

====

System tested: Albumin (Bos taurus)
Experimental details: Plasma protein binding in bovine serum albumin assessed as fraction bound at 5:1 ratio of compound and BSA by 1H DOSY NMR spectrophotometric analysis
Format: ADME
Conditions used: cattle, read-out: PPB (converted)
Mark false for fraction unbound values under 0.3, and true for everything at or above.

Cn1c(=O)c2c(ncn2C)n(C)c1=O : false
CN/C(=N/CCSCc1nc[nH]c1C)NC#N : true
CC(C)NCC(O)COc1cccc2ccccc12 (stereo unspecified) : false

(Q) Would you say N[C@H]1C(O)O[C@H](CO)[C@@H](O)[C@@H]1O (stereo partly specified) shows fraction unbound at minimum 0.3?
(A) false

(Q) Would you say CC(=O)Oc1ccccc1C(=O)O shows fraction unbound at minimum 0.3?
(A) false

(Q) Would you say OC[C@H]1OC(O)[C@H](O)[C@@H]1O (stereo partly specified) shows fraction unbound at minimum 0.3?
(A) false

====

System tested: Albumin (Bos taurus, UniProt P02769)
Sequence (P02769 whole entry): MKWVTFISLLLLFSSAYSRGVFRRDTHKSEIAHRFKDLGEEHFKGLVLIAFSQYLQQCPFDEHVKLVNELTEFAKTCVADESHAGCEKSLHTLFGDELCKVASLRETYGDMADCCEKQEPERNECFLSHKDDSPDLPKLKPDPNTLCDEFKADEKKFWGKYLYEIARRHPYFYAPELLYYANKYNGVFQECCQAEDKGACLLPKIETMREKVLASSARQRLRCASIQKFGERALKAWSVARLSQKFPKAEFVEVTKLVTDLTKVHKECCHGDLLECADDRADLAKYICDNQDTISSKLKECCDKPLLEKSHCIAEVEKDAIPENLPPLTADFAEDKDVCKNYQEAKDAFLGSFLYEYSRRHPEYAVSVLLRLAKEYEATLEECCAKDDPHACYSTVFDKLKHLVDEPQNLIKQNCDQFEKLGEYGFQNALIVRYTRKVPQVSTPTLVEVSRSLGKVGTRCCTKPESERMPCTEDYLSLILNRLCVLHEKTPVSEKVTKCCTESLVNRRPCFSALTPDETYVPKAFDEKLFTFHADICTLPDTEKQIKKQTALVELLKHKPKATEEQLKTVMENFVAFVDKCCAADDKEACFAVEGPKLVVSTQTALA
Experimental details: Plasma protein binding in bovine serum albumin assessed as fraction bound at 20:1 ratio of compound and BSA by 1H DOSY NMR spectrophotometric analysis
Type: ADME
Conditions used: cattle, read-out: PPB (converted)
I'd appreciate it if you could supply fraction unbound values for the items below.
Give bare numbers.

Reference set (2 entries):
CC(=O)Oc1ccccc1C(=O)O : 0.48
N[C@H]1C(O)O[C@H](CO)[C@@H](O)[C@@H]1O (some centres not stated) : 0.71

List fraction unbound for every entry below, keeping the order given.
1. Cn1c(=O)c2c(ncn2C)n(C)c1=O
2. CN/C(=N/CCSCc1nc[nH]c1C)NC#N
3. CC(C)NCC(O)COc1cccc2ccccc12 (configuration not stated)
4. COc1ccc2nc([S@@+]([O-])Cc3ncc(C)c(OC)c3C)[nH]c2c1
5. OC[C@H]1OC(O)[C@H](O)[C@@H]1O (some centres not stated)

(A)
0.71
0.74
0.49
0.04
0.36

====

System tested: Albumin (Bos taurus, UniProt P02769)
Experimental details: Plasma protein binding in bovine serum albumin assessed as fraction bound at 10:1 ratio of compound and BSA by 1H DOSY NMR spectrophotometric analysis
Type: ADME
Conditions used: cattle, read-out: PPB (converted)
I'd appreciate it if you could supply fraction unbound values for the items below.
Give bare numbers.

Reference set (2 entries):
CC(=O)Oc1ccccc1C(=O)O : 0.16
CC(C)NCC(O)COc1cccc2ccccc12 (stereo not drawn) : 0.41

Now take the following molecule into account.
(Q) Which fraction unbound is listed for CN/C(=N/CCSCc1nc[nH]c1C)NC#N ?
(A) 0.66
